Could you please report measured SHP-1 recruitment (% blocking), Test II for the items listed next?
# ASSAY_SYSTEM: full length human SIRPα v1 with a small beta-gal fragment (ED) fused to its C-terminal, expressed in K562 … (human, UniProt P78324 31-504)
# Sequence (P78324 31-504): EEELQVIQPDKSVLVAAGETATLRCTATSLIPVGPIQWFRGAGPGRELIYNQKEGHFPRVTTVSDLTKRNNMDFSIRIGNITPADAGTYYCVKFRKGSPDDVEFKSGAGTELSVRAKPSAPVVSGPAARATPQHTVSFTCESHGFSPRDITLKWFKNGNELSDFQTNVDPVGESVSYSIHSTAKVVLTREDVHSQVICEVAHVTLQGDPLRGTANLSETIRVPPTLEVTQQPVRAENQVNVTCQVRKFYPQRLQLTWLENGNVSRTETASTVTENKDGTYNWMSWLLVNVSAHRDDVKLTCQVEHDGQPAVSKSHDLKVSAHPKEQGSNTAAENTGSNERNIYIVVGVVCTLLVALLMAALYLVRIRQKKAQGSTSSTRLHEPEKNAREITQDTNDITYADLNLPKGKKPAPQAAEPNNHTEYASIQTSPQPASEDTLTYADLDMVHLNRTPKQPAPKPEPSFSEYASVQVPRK
# TEST: cell-based or functional assay
Numbers only, in %.

Use these answered entries as a reference point.
>  <BINDER>
015 (antibody, V domains shown, Mouse monoclonal hybridoma antibody; also called antibody 015; hybridoma antibody 015) VH: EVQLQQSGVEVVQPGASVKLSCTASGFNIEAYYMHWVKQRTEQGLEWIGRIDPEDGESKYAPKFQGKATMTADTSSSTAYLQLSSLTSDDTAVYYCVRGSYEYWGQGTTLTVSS VL: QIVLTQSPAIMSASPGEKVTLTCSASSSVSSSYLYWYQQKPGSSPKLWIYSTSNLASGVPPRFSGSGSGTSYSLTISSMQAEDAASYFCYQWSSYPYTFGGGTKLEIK

>  <PARAMETER_MEASURED>
SHP-1 recruitment (% blocking), Test II

>  <MEASUREMENT_UNITS>
%

>  <QUANTITATIVE_RESULT>
89.6

$$$$
>  <BINDER>
005 (antibody, V domains shown, Mouse monoclonal hybridoma antibody purified on Protein A; also called antibody 005; hybridoma antibody 005) VH: EVKLVESGGGLVQPGGSLSLSCAASGFTFTDYYMSWVRQPPGKALEWLGFIKNEANGYTTESSASVKGRFTISRDNSQSILYLQMNALRAEDSATYYCARYDYYGSNYNWYFDAWGTGTTVTVSS VL: DIVMTQSQKFMSPSVGDRVSITCKASQNVRTAVAWYQQKPGQSPKVLIHLASKRHTGVPDRFTGSGSGTDFTLTISNVQSEDLADYFCLQHWIHPLTFGAGTKLELK

>  <PARAMETER_MEASURED>
SHP-1 recruitment (% blocking), Test II

>  <MEASUREMENT_UNITS>
%

>  <QUANTITATIVE_RESULT>
82.7

$$$$
>  <BINDER>
059 (antibody, V domains shown, Mouse monoclonal hybridoma antibody; also called antibody 059; hybridoma antibody 059) VH: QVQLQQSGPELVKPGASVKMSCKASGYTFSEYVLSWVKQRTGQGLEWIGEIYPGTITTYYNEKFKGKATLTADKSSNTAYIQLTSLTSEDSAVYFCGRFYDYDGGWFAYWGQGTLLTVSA VL: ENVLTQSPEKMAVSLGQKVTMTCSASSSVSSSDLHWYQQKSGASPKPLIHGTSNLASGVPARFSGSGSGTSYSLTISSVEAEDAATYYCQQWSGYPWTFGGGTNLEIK

>  <PARAMETER_MEASURED>
SHP-1 recruitment (% blocking), Test II

>  <MEASUREMENT_UNITS>
%

>  <QUANTITATIVE_RESULT>
80.2

$$$$

Now let's try a different one.
Reported SHP-1 recruitment (% blocking), Test II of 042 (antibody, V domains shown, Mouse monoclonal hybridoma antibody; also called antibody 042; hybridoma antibody 042) VH: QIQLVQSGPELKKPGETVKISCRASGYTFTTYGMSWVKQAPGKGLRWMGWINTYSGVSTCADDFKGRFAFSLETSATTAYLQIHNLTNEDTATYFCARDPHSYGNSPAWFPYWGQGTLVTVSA VL: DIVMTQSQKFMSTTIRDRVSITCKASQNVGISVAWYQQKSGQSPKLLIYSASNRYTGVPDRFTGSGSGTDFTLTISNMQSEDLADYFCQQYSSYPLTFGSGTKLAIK : 76.1
